- System: Candida albicans
- protocol_text: Anticandidal activity against Candida albicans 4T after 24 hrs by spectrophotometry
- Format: functional
Reported log10 MIC values for a set of molecules
Hi team, quick reminder: these entries are log10 of MIC (µM).

{"entry_smiles": "N=C(NCCCCCCCCN1CCCCCCCCNC(=N)NC1=O)NCc1ccccc1", "log10 MIC": 0.40}

Enquiry: Given the molecule `CC(C)=CCNC(=N)NCCCCCCCCNCCCCCCCCNC(=N)N` , write its reported log10 MIC.
Return: 1.90

Enquiry: Given the molecule `C/C=C/CNC(=N)NCCCCCCCCN1CCCCCCCCNC(=N)NC1=O` , write its reported log10 MIC.
Return: 0.10

Enquiry: Given the molecule `N=C(N)NCCCCCCCCNCCCCCCCCNC(=N)NCC1CC1` , write its reported log10 MIC.
Return: 1.00

Enquiry: Given the molecule `N=C(N)NCCCCCCCCN(CCCCCCCCNC(=N)N)C(=N)N` , write its reported log10 MIC.
Return: 0.70

Enquiry: Given the molecule `C#CCNC(=N)NCCCCCCCCN1CCCCCCCCNC(=N)NC1=O` , write its reported log10 MIC.
Return: 1.90
